Assay: UV absorption properties (λmax, molar extinction coefficient ε, efficiency E 1%, 1 cm)
Assay type: physicochemical
Conditions: Table 5; values in order of the λmax values
OBSERVATION TYPE: Ε (1%, 1 cm)
Answers are plain numbers.

{"MOLECULE": "CC1(C)CCN(C(C)(C)C)C=C1C(=O)C1=CN(C(C)(C)C)CCC1(C)C [drawing 73]", "Ε (1%, 1 cm)": 456}
{"MOLECULE": "CC1(C)CCN(C(C)(C)C)C=C1C(=O)COc1ccccc1 [drawing 74]", "Ε (1%, 1 cm)": 869}
{"MOLECULE": "CC1(C)CCN(C(C)(C)C)C=C1C(=O)CCCCCCCCC(=O)C1=CN(C(C)(C)C)CCC1(C)C [drawing 72]", "Ε (1%, 1 cm)": 1095}

Shift focus to the following entry.
Per the records, this molecule ( CC1(C)CCN(C(C)(C)C)C=C1C(=O)c1ccncc1 [drawing 75] ) has Ε (1%, 1 cm) equal to 866

---

Test: UV absorption properties (λmax, molar extinction coefficient ε, efficiency E 1%, 1 cm)
Type: physicochemical
Details: values in order of the λmax values
Mark Yes for reported ε (molar extinction coefficient) of 20000 M⁻¹ cm⁻¹ or greater; mark No for anything smaller.

{"SMILES DATA": "CC(C)CN1C=C(C(=O)c2ccccc2)C(C)(C)CC1", "GROUP LABEL": "No"}
{"SMILES DATA": "CC1(C)CCN(C(C)(C)C)C=C1C(=O)Nc1cccc(NC(=O)C2=CN(C(C)(C)C)CCC2(C)C)c1", "GROUP LABEL": "Yes"}
{"SMILES DATA": "C=CCCC(=O)C1=CN(CC(C)C)CCC1(C)C", "GROUP LABEL": "Yes"}
{"SMILES DATA": "CC1(C)CCN(c2ccc(C(C)(C)C)cc2)C=C1C(=O)Nc1ccccc1", "GROUP LABEL": "Yes"}
{"SMILES DATA": "Cc1ccc(S(=O)(=O)NC(=O)C2=CN(C(C)(C)C)CCC2(C)C)cc1", "GROUP LABEL": "Yes"}

Determine whether measured ε (molar extinction coefficient) meets or exceeds 20000 M⁻¹ cm⁻¹ for COc1ccc(C(=O)C2=CN(CC(C)C)CCC2(C)C)c(OC)c1
No

Determine whether measured ε (molar extinction coefficient) meets or exceeds 20000 M⁻¹ cm⁻¹ for Cc1ccc(N2C=C(C(=O)CCCCCCCCC(=O)C3=CN(c4ccc(C)cc4)CCC3(C)C)C(C)(C)CC2)cc1
Yes

Determine whether measured ε (molar extinction coefficient) meets or exceeds 20000 M⁻¹ cm⁻¹ for CC1(C)CCN(c2ccc(C(C)(C)C)cc2)C=C1C(=O)Nc1ccc(NC(=O)C2=CN(c3ccc(C(C)(C)C)cc3)CCC2(C)C)cc1
Yes

Determine whether measured ε (molar extinction coefficient) meets or exceeds 20000 M⁻¹ cm⁻¹ for COc1ccc(N2C=C(C(=O)c3ccc(F)cc3)C(C)(C)CC2)cc1
No

Determine whether measured ε (molar extinction coefficient) meets or exceeds 20000 M⁻¹ cm⁻¹ for Cc1ccc(N2C=CC(C)(C)C(C(=O)C(F)(F)F)=C2)cc1
No

Determine whether measured ε (molar extinction coefficient) meets or exceeds 20000 M⁻¹ cm⁻¹ for COc1ccc(/C=C/C(=O)C2=CN(CC(C)C)CCC2(C)C)cc1
No

Determine whether measured ε (molar extinction coefficient) meets or exceeds 20000 M⁻¹ cm⁻¹ for CCC(=O)C1=C(c2ccccc2)N(CC(C)C)CCC1(C)C
No

---

Assay: UV absorption properties (λmax, molar extinction coefficient ε, efficiency E 1%, 1 cm)
Type: physicochemical
Details: Table 4
OBSERVATION TYPE: Ε (1%, 1 cm)
Answers are plain numbers.

Below: 3 compounds and their reported Ε (1%, 1 cm).
{"COMPOUND": "CC1(C)CCN(c2ccc(C(C)(C)C)cc2)C=C1C(=O)Nc1ccc(NC(=O)C2=CN(c3ccc(C(C)(C)C)cc3)CCC2(C)C)cc1 [drawing 68]", "OBSERVATION TYPE": "Ε (1%, 1 cm)", "MEASUREMENT": 1054}
{"COMPOUND": "CC1(C)CCN(c2ccc(C(C)(C)C)cc2)C=C1C(=O)Nc1ccccc1 [drawing 70]", "OBSERVATION TYPE": "Ε (1%, 1 cm)", "MEASUREMENT": 987}
{"COMPOUND": "Cc1ccc(N2C=C(C(=O)Nc3ccc(C)c(NC(=O)C4=CN(C(C)(C)C)CCC4(C)C)c3)C(C)(C)CC2)cc1 [drawing 67]", "OBSERVATION TYPE": "Ε (1%, 1 cm)", "MEASUREMENT": 954}

Per the records, this compound ( Cc1ccc(N2C=C(C(=O)Nc3ccccc3)C(C)(C)CC2)cc1 [drawing 69] ) has Ε (1%, 1 cm) equal to 1060

---

Assay: UV absorption properties (λmax, molar extinction coefficient ε, efficiency E 1%, 1 cm)
Assay type: physicochemical
Settings: Table 3, compounds from isocyanates or isothiocyanates
OBSERVATION TYPE: λmax
Please report the result as a number followed by the unit.

{"MOLECULE": "Cc1ccc(NC(=O)C2=CN(C(C)(C)C)CCC2(C)C)cc1NC(=O)C1=CN(C(C)(C)C)CCC1(C)C [drawing 62]", "λmax": "308 nm"}
{"MOLECULE": "CC1(C)CCN(C(C)(C)C)C=C1C(=O)Nc1ccc(Cc2ccc(NC(=O)C3=CN(C(C)(C)C)CCC3(C)C)cc2)cc1 [drawing 63]", "λmax": "310 nm"}
{"MOLECULE": "CC1(C)CCN(C(C)(C)C)C=C1C(=S)Nc1ccccc1 [drawing 60]", "λmax": "363 nm"}

Shift focus to the following entry.
Per the records, this molecule ( CC1(C)CCN(C(C)(C)C)C=C1C(=O)Nc1cccc(NC(=O)C2=CN(C(C)(C)C)CCC2(C)C)c1 [drawing 66] ) has λmax equal to 313 nm

---

Test: Critical wavelength (λcrit), approximate in-house measurement
Assay type: physicochemical
Conditions: Table 7
Give λcrit for every item shown.
One number for each entry, in nm.

Below: 6 compounds and their reported λcrit.
{"COMPOUND": "CC(C)CN1C=C(C(=O)/C=C/c2ccc(C(F)(F)F)cc2)C(C)(C)CC1 [drawing 113]", "λcrit (nm)": 388}
{"COMPOUND": "C=C/C=C/C(=O)C1=CN(CC(C)C)CCC1(C)C [drawing 117]", "λcrit (nm)": 381}
{"COMPOUND": "CC(C)CN1C=C(C(=O)/C=C/c2ccccc2)C(C)(C)CC1 [drawing 111]", "λcrit (nm)": 383}
{"COMPOUND": "CC(C)CN1C=C(C(=O)/C=C/C=Cc2ccccc2)C(C)(C)CC1 [drawing 115]", "λcrit (nm)": 387}
{"COMPOUND": "C=CC(=O)C1=CN(CC(C)C)CCC1(C)C [drawing 112]", "λcrit (nm)": 363}
{"COMPOUND": "CC(C)CN1C=C(C(=O)C(C#N)=C(c2ccccc2)c2ccccc2)C(C)(C)CC1 [drawing 118]", "λcrit (nm)": 357}

Per the records, this compound ( COc1ccc(/C=C/C(=O)C2=CN(CC(C)C)CCC2(C)C)cc1 [drawing 114] ) has λcrit equal to 386

---

Assay: UV absorption properties (λmax, molar extinction coefficient ε, efficiency E 1%, 1 cm)
Assay type: physicochemical
Conditions: Table 8b, N-phenyl compounds
OBSERVATION TYPE: λmax (nm)
Numbers only, in nm.

{"COMPOUND": "COc1ccc(N2C=C(C(=O)COc3ccccc3)C(C)(C)CC2)cc1 [drawing 132]", "READOUT UNITS": "nm", "MEASUREMENT": 339}
{"COMPOUND": "Cc1ccc(N2C=C(C(=O)CCCCCCCCC(=O)C3=CN(c4ccc(C)cc4)CCC3(C)C)C(C)(C)CC2)cc1 [drawing 131]", "READOUT UNITS": "nm", "MEASUREMENT": 328}
{"COMPOUND": "CCC(=O)C1=CN(c2cccc3ccccc23)CCC1(C)C [drawing 137]", "READOUT UNITS": "nm", "MEASUREMENT": 321}

Per the records, this compound ( COc1ccc(N2C=C(C(=O)C3CCCC3=O)C(C)(C)CC2)cc1 (stereo not shown) [drawing 130] ) has λmax equal to 332

---

Test: UV absorption properties (λmax, molar extinction coefficient ε, efficiency E 1%, 1 cm)
Type: physicochemical
OBSERVATION TYPE: UV λmax (nm)
Give bare numbers, in nm.

Below: 5 molecules and their reported UV λmax.
{"MOLECULE": "CC(C)CN1C=C(C(=O)c2ccc(C(C)(C)C)cc2)C(C)(C)CC1 [Compound 11]", "OBSERVATION TYPE": "UV λmax", "MEASUREMENT": 317}
{"MOLECULE": "CCC(=O)C1=CN(CC(C)C)C(=O)CC1(C)C [Compound 64]", "OBSERVATION TYPE": "UV λmax", "MEASUREMENT": 291}
{"MOLECULE": "CC1(C)CCN(C(C)(C)C)C=C1C(=O)C1=CN(C(C)(C)C)CCC1(C)C [Compound 167]", "OBSERVATION TYPE": "UV λmax", "MEASUREMENT": 305}
{"MOLECULE": "CC1(C)CCN(C(C)(C)C)C=C1C(=O)Nc1ccccc1 [Compound 179]", "OBSERVATION TYPE": "UV λmax", "MEASUREMENT": 308}
{"MOLECULE": "COc1ccc(N2C=C(C(=O)C3CCCC3=O)C(C)(C)CC2)cc1 (centres unmarked) [Compound 171]", "OBSERVATION TYPE": "UV λmax", "MEASUREMENT": 332}

Parameter requested: UV λmax. Apply to each item below.
1. Cc1ccc(NC(=O)C2=CN(C(C)(C)C)CCC2(C)C)cc1NC(=O)C1=CN(C(C)(C)C)CCC1(C)C [Compound 184]
2. CCCCCCCC(=O)C1=CN(c2ccc(N(C)C)cc2)CCC1(C)C [Compound 175]
3. CN(C(=O)C1=CN(C(C)(C)C)CCC1(C)C)c1ccccc1 [Compound 180]
4. CCC(=O)C1=CN(CC(C)C)C=CC1(C)C [Compound 65]
5. CC1(C)CCN(c2ccc(C(C)(C)C)cc2)C=C1C(=O)C(F)(F)F [Compound 194]
6. COc1ccc(C(=O)C2=CN(CC(C)C)CCC2(C)C)cc1 [Compound 12]

1: 308; 2: 338; 3: 312; 4: 366; 5: 337; 6: 319
